biological target: Estrogen receptor (Homo sapiens) + Estrogen receptor beta (Homo sapiens) (UniProt P03372+Q92731); assay: OT_ER_ERaERb_0480: Odyssey Thera (OT) 8-hour HEK293T Protein-Complementation Assay for Estrogen Receptor-alpha/-beta Heterodimer (AID 2283352)
Sequence (P03372 whole entry, looked up): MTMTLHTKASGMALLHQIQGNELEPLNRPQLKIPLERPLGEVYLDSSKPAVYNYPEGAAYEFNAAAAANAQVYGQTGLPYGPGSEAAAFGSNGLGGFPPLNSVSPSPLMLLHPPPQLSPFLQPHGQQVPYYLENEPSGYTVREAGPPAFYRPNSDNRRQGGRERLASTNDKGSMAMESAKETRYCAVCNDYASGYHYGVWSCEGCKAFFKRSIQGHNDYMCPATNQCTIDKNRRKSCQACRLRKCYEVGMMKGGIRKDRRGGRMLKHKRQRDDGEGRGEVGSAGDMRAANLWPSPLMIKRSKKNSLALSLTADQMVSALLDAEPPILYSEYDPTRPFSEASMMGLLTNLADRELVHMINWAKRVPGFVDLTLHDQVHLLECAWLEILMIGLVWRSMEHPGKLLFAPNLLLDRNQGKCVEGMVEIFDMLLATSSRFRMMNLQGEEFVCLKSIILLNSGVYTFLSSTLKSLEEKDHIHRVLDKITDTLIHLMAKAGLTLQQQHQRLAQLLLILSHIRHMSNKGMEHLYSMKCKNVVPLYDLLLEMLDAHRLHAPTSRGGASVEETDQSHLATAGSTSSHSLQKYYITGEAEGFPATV
Sequence (Q92731 whole entry, looked up): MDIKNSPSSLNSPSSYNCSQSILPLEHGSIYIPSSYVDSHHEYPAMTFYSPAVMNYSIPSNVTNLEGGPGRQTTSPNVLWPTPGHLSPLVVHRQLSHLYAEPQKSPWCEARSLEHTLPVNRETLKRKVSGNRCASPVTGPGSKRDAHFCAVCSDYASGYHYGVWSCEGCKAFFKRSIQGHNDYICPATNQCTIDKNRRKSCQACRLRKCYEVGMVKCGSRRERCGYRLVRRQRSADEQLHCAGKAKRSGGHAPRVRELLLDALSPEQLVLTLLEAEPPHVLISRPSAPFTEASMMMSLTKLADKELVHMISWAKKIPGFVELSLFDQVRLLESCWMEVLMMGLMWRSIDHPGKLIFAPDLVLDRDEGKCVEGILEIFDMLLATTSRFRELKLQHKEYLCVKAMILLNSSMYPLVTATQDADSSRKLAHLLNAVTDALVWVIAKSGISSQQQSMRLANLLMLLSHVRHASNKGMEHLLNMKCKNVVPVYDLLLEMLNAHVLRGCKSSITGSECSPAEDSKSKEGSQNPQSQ
Results filed as inconclusive are left out. The source made the active and inactive calls. How the source made its calls: active means hit-call score of the fitted dose curve at least 0.9, where 1 is the maximum; inconclusive means response in the unintended direction; inactive means score below 0.9.
Classes used: 1 = active, 0 = inactive

- Smiles Data: "CC(C)(C)c1ccc(OC(=O)c2ccccc2O)cc1"
  Classification: 1
- Smiles Data: "O=c1cc(-c2ccccc2)oc2ccccc12"
  Classification: 0
- Smiles Data: "CCCc1ccc(OC)cc1"
  Classification: 0
- Smiles Data: "Cc1ccc(C(C)c2ccc(C)c(C)c2)cc1C"
  Classification: 1
- Smiles Data: "CCCCCCCCCCCCCOP(=O)(O)O"
  Classification: 0
- Smiles Data: "CC/C=C\\C/C=C\\C/C=C\\CCCCCCCC(=O)O"
  Classification: 0
- Smiles Data: "O=S(=O)(O)c1ccccc1C=Cc1ccc(-c2ccc(C=Cc3ccccc3S(=O)(=O)O)cc2)cc1"
  Classification: 0
- Smiles Data: "O=C(C=Cc1ccccc1)OCc1ccccc1"
  Classification: 0
